Overview of reported koff across a group of binders:
# experimental_system: T1, Taq DNA polymerase (Thermus aquaticus, UniProt P19821 1-832)
# T1 construct: also called Taq enzyme; Taq DNA enzyme
# T1 sequence (P19821 whole entry): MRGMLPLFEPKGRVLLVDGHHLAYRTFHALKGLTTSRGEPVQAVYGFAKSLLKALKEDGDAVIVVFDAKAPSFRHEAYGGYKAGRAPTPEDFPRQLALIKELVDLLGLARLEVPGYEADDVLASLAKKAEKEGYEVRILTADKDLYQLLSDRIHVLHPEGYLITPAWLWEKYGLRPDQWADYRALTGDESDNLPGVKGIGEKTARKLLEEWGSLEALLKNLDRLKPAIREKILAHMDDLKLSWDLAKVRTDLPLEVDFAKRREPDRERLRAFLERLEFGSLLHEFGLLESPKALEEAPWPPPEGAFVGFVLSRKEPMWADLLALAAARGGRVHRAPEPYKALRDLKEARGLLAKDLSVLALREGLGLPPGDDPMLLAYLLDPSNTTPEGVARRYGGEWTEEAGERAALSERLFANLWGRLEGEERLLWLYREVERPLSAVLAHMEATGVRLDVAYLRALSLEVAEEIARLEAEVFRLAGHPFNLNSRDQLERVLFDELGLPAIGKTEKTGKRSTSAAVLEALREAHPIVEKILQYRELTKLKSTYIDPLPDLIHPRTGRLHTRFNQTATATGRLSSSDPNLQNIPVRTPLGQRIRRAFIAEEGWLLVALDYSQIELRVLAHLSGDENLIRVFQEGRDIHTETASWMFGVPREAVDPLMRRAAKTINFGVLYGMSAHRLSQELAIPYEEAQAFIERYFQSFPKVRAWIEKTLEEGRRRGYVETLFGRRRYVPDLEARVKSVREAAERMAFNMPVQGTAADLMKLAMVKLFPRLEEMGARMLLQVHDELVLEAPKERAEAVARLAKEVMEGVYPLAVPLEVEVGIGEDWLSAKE
# method_notes: AMC sensor, antibody immobilised
Give just the numeric value; s⁻¹ need not be written.

Reported koff ( Mutation 1-7 (antibody, V domains shown, Mutation 1 background; CDRs built) VH: QVQLQQPGAELVKPGASVRLSCQTSVDTFTTYYIYWVKQRPGEGLEWIGGINPTSNPVFNEKFKSKATLTVDTSSSTAYMQLSSLTSVDSAVYYCTRSLVRRGYYFDYWGQGTALTVSS VL: DIQMTQTTSSLSASLGDRVTISCRASQDINNYVNWYQQKPDGTIKLLIYYTSRLNSGVPSRFSGSGSGTDYSLTIANLEQEDIATYFCQQDDTLPITFGAGTKVELKR ) = 2.45e-05

Reported koff ( Mutation 1-5 (antibody, V domains shown, Mutation 1 background; CDRs built) VH: QVQLQQPGAELVKPGASVRLSCQTSVNTFTTYYIYWVKQRPGEGLEWIGGLNPTSGGPVFNEKFKSKATLTVDTSSSTAYMQLSSLTSVDSAVYYCTRSVIRRGYYFDYWGQGTALTVSS VL: DIQMTQTTSSLSASLGDRVTISCRASQDINNYINWYQQKPDGTIKLLIYYTSRLHSGLPSRFSGSGSGTDYSLTIANLEQEDIATYFCQQDDTVPLTFGAGTKVELKR ) = 7.78e-05

Reported koff ( Mutation 1-31 (antibody, V domains shown, Mutation 1 background; CDRs built) VH: QVQLQQPGAELVKPGASVRLSCQTSVNTFTTYYIYWVKQRPGEGLEWIGGLNPTSGGPVFNEKFKSKATLTVDTSSSTAYMQLSSLTSVDSAVYYCTRSVVRRGYYFDYWGQGTALTVSS VL: DIQMTQTTSSLSASLGDRVTISCRASQDINNYVNWYQQKPDGTIKLLIYYTSRLHSGVPSRFSGSGSGTDYSLTIANLEQEDIATYFCQQDDTVPITFGAGTKVELKR ) = 5.38e-05

Reported koff ( Mutation 1-37 (antibody, V domains shown, Mutation 1 background; CDRs built) VH: QVQLQQPGAELVKPGASVRLSCQTSVETFTTYYIYWVKQRPGEGLEWIGGLNPTSNPVFNEKFKSKATLTVDTSSSTAYMQLSSLTSVDSAVYYCTRSIVRRGYYFDYWGQGTALTVSS VL: DIQMTQTTSSLSASLGDRVTISCRASQDINNYVNWYQQKPDGTIKLLIYYTSRLHSGIPSRFSGSGSGTDYSLTIANLEQEDIATYFCQQDDTIPITFGAGTKVELKR ) = 2.68e-05

Reported koff ( Mutation 1-32 (antibody, V domains shown, Mutation 1 background; CDRs built) VH: QVQLQQPGAELVKPGASVRLSCQTSVDTFSTYYIYWVKQRPGEGLEWIGGVNPTSGGPVFNEKFKSKATLTVDTSSSTAYMQLSSLTSVDSAVYYCTRSVIRRGYYFDYWGQGTALTVSS VL: DIQMTQTTSSLSASLGDRVTISCRASQDIQNYLNWYQQKPDGTIKLLIYYTSRLNSGVPSRFSGSGSGTDYSLTIANLEQEDIATYFCQQDDTVPVTFGAGTKVELKR ) = 8.8e-06
